molecular target: native human GLUT5 (Homo sapiens); construct: native full-length transporter in MCF7 breast cancer cells; assay: […]-fructose uptake in MCF7 cells, Dixon plot; conditions: competitive with fructose; 50 μM cytochalasin B present to block GLUT2; 3-20 mM fructose; 2 min; 22 °C
Sequence (P22732 whole entry): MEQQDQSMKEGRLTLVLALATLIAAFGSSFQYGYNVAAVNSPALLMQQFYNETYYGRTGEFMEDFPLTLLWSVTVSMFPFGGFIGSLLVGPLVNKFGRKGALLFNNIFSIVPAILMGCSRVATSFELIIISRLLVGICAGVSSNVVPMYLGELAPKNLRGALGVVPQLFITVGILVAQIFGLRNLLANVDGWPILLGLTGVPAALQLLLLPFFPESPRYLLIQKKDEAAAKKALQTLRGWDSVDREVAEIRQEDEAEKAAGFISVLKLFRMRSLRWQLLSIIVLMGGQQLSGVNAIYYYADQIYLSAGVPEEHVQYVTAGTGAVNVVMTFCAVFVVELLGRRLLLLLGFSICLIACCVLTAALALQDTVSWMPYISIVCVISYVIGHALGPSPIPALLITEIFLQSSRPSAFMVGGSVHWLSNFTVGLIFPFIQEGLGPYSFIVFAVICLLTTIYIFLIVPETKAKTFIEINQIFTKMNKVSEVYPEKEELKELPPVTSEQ
Outcome measure: Ki
The number alone won't do; follow it with the unit.

Lookup: Identify measured Ki associated with CS(=O)(=O)c1ccc(Nc2ccc3c(c2)OCO3)c([N+](=O)[O-])c1 [MSNBA]
Found: 3.2 µM
